Can you tell me pIC50 for the items I'm about to list?
biological target: AChE (E.C.3.1.1.7., Type VI-S, from electric eel) (Electrophorus electricus, UniProt O42275)
Sequence (O42275 24-633): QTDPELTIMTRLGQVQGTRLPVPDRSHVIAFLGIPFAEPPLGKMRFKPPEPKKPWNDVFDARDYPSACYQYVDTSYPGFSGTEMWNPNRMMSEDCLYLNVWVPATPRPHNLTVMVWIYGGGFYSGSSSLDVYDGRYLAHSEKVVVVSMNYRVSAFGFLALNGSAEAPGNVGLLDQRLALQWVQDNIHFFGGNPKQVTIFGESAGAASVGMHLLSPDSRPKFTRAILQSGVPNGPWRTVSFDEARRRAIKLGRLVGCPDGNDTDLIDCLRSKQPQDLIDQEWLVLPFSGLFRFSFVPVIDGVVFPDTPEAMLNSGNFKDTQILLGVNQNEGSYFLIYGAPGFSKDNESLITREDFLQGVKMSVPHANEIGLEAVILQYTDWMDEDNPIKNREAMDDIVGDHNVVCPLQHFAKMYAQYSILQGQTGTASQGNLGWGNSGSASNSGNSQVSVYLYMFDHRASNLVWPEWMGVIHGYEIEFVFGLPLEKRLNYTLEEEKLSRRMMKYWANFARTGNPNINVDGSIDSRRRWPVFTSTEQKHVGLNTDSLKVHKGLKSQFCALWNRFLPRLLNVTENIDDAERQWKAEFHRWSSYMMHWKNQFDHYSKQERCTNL
Note on units: pIC50 is unitless, being -log10 of a concentration expressed in mol/L.

[in] Please give the documented pIC50 of `O=C1c2ccccc2C(=O)N1c1ccc(S(=O)(=O)Nc2ccc(Cl)cc2)cc1`
[out] 5.09

[in] Query pIC50 for `COc1ccccc1NS(=O)(=O)c1ccc(N2C(=O)c3ccccc3C2=O)cc1`
[out] 5.17

[in] Entry `Cc1ccc(NS(=O)(=O)c2ccc(N3C(=O)c4ccccc4C3=O)cc2)cc1` needs its pIC50 filled in; supply it.
[out] 5.06

[in] Determine from records and report pIC50 for `O=C1c2ccccc2C(=O)N1c1ccc(S(=O)(=O)N2CCOCC2)cc1`
[out] 5.10

[in] Answer with the recorded pIC50 for the compound listed here: `O=C1c2ccccc2C(=O)N1c1ccc(S(=O)(=O)N2CCCCC2)cc1`
[out] 4.98

[in] Identify measured pIC50 corresponding to `CCN(CC)S(=O)(=O)c1ccc(N2C(=O)c3ccccc3C2=O)cc1`
[out] 5.87

[in] Using the record for CC1CCCCN1S(=O)(=O)c1ccc(N2C(=O)c3ccccc3C2=O)cc1 (centres unmarked) , state its measured pIC50.
[out] 5.09

[in] Give recorded pIC50. `Cc1ccccc1NS(=O)(=O)c1ccc(N2C(=O)c3ccccc3C2=O)cc1`
[out] 5.16

[in] Determine from records and report pIC50 for `COc1ccc(NS(=O)(=O)c2ccc(N3C(=O)c4ccccc4C3=O)cc2)cc1`
[out] 5.07

[in] Look up and state reported pIC50 for `CC(C)c1ccccc1NS(=O)(=O)c1ccc(N2C(=O)c3ccccc3C2=O)cc1`
[out] 5.09
